The reported numbers originate from patent US20110212968A1.

Target: human orexin-1 receptor (Homo sapiens, UniProt O43613)
Construct: expressed in transfected cells; host or cells: CHO (Chinese hamster ovary) cells, kept under G418 selection
Sequence (O43613 whole entry): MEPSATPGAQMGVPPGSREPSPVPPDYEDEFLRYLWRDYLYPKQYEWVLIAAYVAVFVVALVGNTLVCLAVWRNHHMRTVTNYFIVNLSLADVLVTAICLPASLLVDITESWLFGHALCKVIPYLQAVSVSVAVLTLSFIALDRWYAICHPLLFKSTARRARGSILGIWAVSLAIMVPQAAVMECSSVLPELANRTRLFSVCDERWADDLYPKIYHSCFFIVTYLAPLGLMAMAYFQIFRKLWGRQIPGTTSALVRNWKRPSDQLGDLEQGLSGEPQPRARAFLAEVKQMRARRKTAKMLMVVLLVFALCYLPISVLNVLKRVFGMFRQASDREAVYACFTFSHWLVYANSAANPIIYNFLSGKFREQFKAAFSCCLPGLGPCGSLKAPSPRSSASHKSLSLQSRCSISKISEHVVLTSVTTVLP
Assay: Intracellular calcium measurement (FLIPR Tetra), orexin receptor antagonistic activity, OX1
Format: cell-based
Settings: CHO cells expressing human orexin-1 receptor, 3 nM orexin-A, conditions B
Protocol: The orexin receptor antagonistic activity of the compounds of formula (I) is determined in accordance with one of the following experimental methods. […] Within the Fluorescent Imaging Plate Reader (FLIPR Tetra, Molecular Devices), antagonists are added to the plate in a volume of 10 μl/well, incubated for 10 min and finally 10 μl/well of agonist is added. […] The calculated IC50 values of the compounds may fluctuate depending on the daily cellular assay performance. […]
Quantity Measured: IC50

• Cc1cccc(-c2sc(N)nc2C(=O)N(CCc2csc(N)n2)CC2CC2)c1 = > 10000 nM
• COc1ccc(CCN(CC(F)(F)F)C(=O)c2nc(N)sc2-c2cccc(C)c2)cc1OC = 149 nM
• Cc1cccc(-c2sc(N)nc2C(=O)N(CCc2ccc3c(c2)OC(F)(F)O3)CC2CC2)c1 = 8510 nM
• COc1ccc(CCN(C)C(=O)c2nc(N)sc2-c2cccc(C)c2)cc1OC = 405 nM
• COc1cc(CCN(CC2CC2)C(=O)c2nc(N)sc2-c2cccc(C)c2)cc(OC)c1OC(C)C = 147 nM
• COc1ccc(CCN(CC2CC2)C(=O)c2ncccc2-c2ccc(C)cc2)cc1OC = 388 nM
• CCN(CCc1ccc(OC)c(OC)c1)C(=O)c1nc(N)sc1-c1cccc(C)c1 = 41 nM
• COc1ccc(CCN(CC(=O)N(C)C)C(=O)c2nc(N)sc2-c2cccc(C)c2)cc1OC = > 10000 nM
• COc1ccc(CCN(CC2CC2)C(=O)c2ccncc2-c2cccc(C)c2)cc1OC = 234 nM
• COc1ccc(CCN(CC2CC2)C(=O)c2ncccc2-c2cccc(C)c2)cc1OC = 182 nM
• CCC(Cc1ccc(OC)c(OC)c1)N(CC1CC1)C(=O)c1nc(N)sc1-c1cccc(C)c1 (stereo not drawn) = 25 nM
• COc1ccc(CCN(CCO)C(=O)c2nc(C)sc2-c2ccc(C)c(C)c2)cc1OC = 170 nM
